System: Staphylococcus aureus
Test description: Antibacterial activity against Staphylococcus aureus 887 expressing beta-lactamase
Format: functional
Property measured: MIC (µg/mL)
// return numeric value only (unit: µg/mL, not printed)

# MIC of CN1CCCC1C(=O)NC/C=C/C1=C(C(=O)O)N2C(=O)[C@@H](NC(=O)CSc3ccc4ccccc4c3)[C@H]2SC1 (some centres not stated) = 1

Reported MIC ( `Nc1nc(/C(=N/O)C(=O)N[C@@H]2C(=O)N3C(C(=O)O)=C(/C=C/CNS(=O)(=O)c4cccnc4)CS[C@H]23)c(Cl)s1` ) = 4

MIC in this record for `CO/N=C(\C(=O)N[C@@H]1C(=O)N2C(C(=O)O)=C(/C=C/CNS(=O)(=O)c3cccnc3)CS[C@H]12)c1csc(N)n1` : 2

The measured MIC associated with `O=C(Cc1ccccc1)N[C@@H]1C(=O)N2C(C(=O)O)=C(/C=C/CNS(=O)(=O)c3ccccc3)CS[C@H]12` reads 16

Lab note: `O=C(CSc1ccc2ccccc2c1)N[C@@H]1C(=O)N2C(C(=O)O)=C(/C=C/CNS(=O)(=O)c3ccccc3)CS[C@H]12` gave MIC of 2

Given item CO/N=C(\C(=O)N[C@@H]1C(=O)N2C(C(=O)O)=C(/C=C/CNC(=O)C3CCCN3C)CS[C@H]12)c1csc(N)n1 (some centres not stated) , the value recorded as its MIC is 8

MIC reading for `O=C(CSc1ccc2ccccc2c1)N[C@@H]1C(=O)N2C(C(=O)O)=C(/C=C/CNC(=O)c3cccnc3)CS[C@H]12` : 1

According to the records, this compound `CO/N=C(\C(=O)N[C@@H]1C(=O)N2C(C(=O)O)=C(/C=C/CNC(=O)c3cccnc3)CS[C@H]12)c1csc(N)n1` displays MIC of 8

Value of measured MIC for the entry `CN(C)CC(=O)NC/C=C/C1=C(C(=O)O)N2C(=O)[C@@H](NC(=O)CSc3ccc4ccccc4c3)[C@H]2SC1` : 1

compound `CC1(C)S[C@@H]2[C@H](NC(=O)[C@H](N)c3ccc(O)cc3)C(=O)N2[C@H]1C(=O)O` , MIC observed: 32

The recorded MIC for entry `CCS(=O)(=O)NC/C=C/C1=C(C(=O)O)N2C(=O)[C@@H](NC(=O)CSc3ccc4ccccc4c3)[C@H]2SC1` equals 2

// sample `O=C(CSc1ccc2ccccc2c1)N[C@@H]1C(=O)N2C(C(=O)O)=C(/C=C/CNS(=O)(=O)c3csc(Cl)c3)CS[C@H]12` , its MIC was 0.5

`Nc1nc(/C(=N/O)C(=O)N[C@@H]2C(=O)N3C(C(=O)O)=C(/C=C/CNS(=O)(=O)c4ccccc4)CS[C@H]23)c(Cl)s1` has a reported MIC of 1

// recorded MIC for CN1CCCC1C(=O)NC/C=C/C1=C(C(=O)O)N2C(=O)[C@@H](NC(=O)Cc3ccccc3)[C@H]2SC1 (some centres not stated) : 8

response.value for `CC(=O)OCC1=C(C(=O)O)N2C(=O)[C@@H](NC(=O)Cc3cccs3)[C@H]2SC1` (field: MIC) = 0.5

# compound `O=C(Cc1ccccc1)N[C@@H]1C(=O)N2C(C(=O)O)=C(/C=C/CNS(=O)(=O)c3csc(Cl)c3)CS[C@H]12` ; its MIC = 2

Reported MIC ( `O=C(CSc1ccc2ccccc2c1)N[C@@H]1C(=O)N2C(C(=O)O)=C(/C=C/CNC(=O)C3CC3)CS[C@H]12` ) = 0.5

====

Test description: Inhibition of Staphylococcus epidermidis PBP2
So basically: is IC50 under 50 µM? Then true. Not under? Then false.

Some solved entries appear below for comparison.
Compound	Label class
O=C(CSc1ccc2ccccc2c1)N[C@@H]1C(=O)N2C(C(=O)O)=C(/C=C/CNC(=O)c3cccnc3)CS[C@H]12	true
CO/N=C(\C(=O)N[C@@H]1C(=O)N2C(C(=O)O)=C(/C=C/CNC(=O)c3cccnc3)CS[C@H]12)c1csc(N)n1	false
O=C(CSc1ccc2ccccc2c1)N[C@@H]1C(=O)N2C(C(=O)O)=C(/C=C/CNS(=O)(=O)c3csc(Cl)c3)CS[C@H]12	true

Problem: For the compound `CCS(=O)(=O)NC/C=C/C1=C(C(=O)O)N2C(=O)[C@@H](NC(=O)CSc3ccc4ccccc4c3)[C@H]2SC1` , is IC50 under 50 µM?
true

Lab note: IC50 threshold 50 µM. Does this compound come in strictly under it? CO/N=C(\C(=O)N[C@@H]1C(=O)N2C(C(=O)O)=C(/C=C/CNC(=O)C3CCCN3C)CS[C@H]12)c1csc(N)n1 (some centres not stated)
false

Please indicate whether the reported IC50 of `CO/N=C(\C(=O)N[C@@H]1C(=O)N2C(C(=O)O)=C(/C=C/CNS(=O)(=O)c3cccnc3)CS[C@H]12)c1csc(N)n1` is strictly below 50 µM.
false

====

System: Staphylococcus aureus
Test description: Antibacterial activity against Staphylococcus aureus COL expressing beta-lactamase in presence of Sulbactam
Type: functional
Below is a list of entries, each paired with its recorded MIC value.
The answer is to be given in µg/mL; state only the numeric part.

Consider the reported MIC for these compounds:
Compound	Tested on	Readout unit	Reported result
CN(C)CC(=O)NC/C=C/C1=C(C(=O)O)N2C(=O)[C@@H](NC(=O)CSc3ccc4ccccc4c3)[C@H]2SC1	Staphylococcus aureus	µg/mL	4
O=C(CSc1ccc2ccccc2c1)N[C@@H]1C(=O)N2C(C(=O)O)=C(/C=C/CNC(=O)c3cccnc3)CS[C@H]12	Staphylococcus aureus	µg/mL	1
CN1CCCC1C(=O)NC/C=C/C1=C(C(=O)O)N2C(=O)[C@@H](NC(=O)CSc3ccc4ccccc4c3)[C@H]2SC1 (some centres undefined)	Staphylococcus aureus	µg/mL	1

Next compound, please.
Noted for `O=C(CSc1ccc2ccccc2c1)N[C@@H]1C(=O)N2C(C(=O)O)=C(/C=C/CNS(=O)(=O)c3csc(Cl)c3)CS[C@H]12` : its MIC reads 1

====

Test description: Inhibition of Staphylococcus epidermidis PBP2
Here the recorded pIC50 is given for each entry.
By convention, pIC50 is the negative base-10 log of a molar concentration.

The cases that follow already have their pIC50 on record.
1. Nc1nc(/C(=N/O)C(=O)N[C@@H]2C(=O)N3C(C(=O)O)=C(/C=C/CNS(=O)(=O)c4ccccc4)CS[C@H]23)c(Cl)s1 5.22
2. O=C(CSc1ccc2ccccc2c1)N[C@@H]1C(=O)N2C(C(=O)O)=C(/C=C/CNS(=O)(=O)c3ccccc3)CS[C@H]12 4.70

Next item in the queue.
Looking up `Nc1nc(/C(=N/O)C(=O)N[C@@H]2C(=O)N3C(C(=O)O)=C(/C=C/CNS(=O)(=O)c4cccnc4)CS[C@H]23)c(Cl)s1` , I see its pIC50 listed as 4.92
